Where do the numbers come from? From ChEMBL document CHEMBL4739717.

Target: Dual specificity tyrosine-phosphorylation-regulated kinase 1A (Homo sapiens)
Assay: Inhibition of recombinant DYRK1A (unknown origin) using Ser/Thr 18 peptide as substrate incubated for 1 hr in presence of ATP by FRET assay
pEC50: −log10 of the molar value.
Label Not satisfied if pEC50 falls below 8; label Satisfied in every other case.

{"columns": ["compound.string", "class.name"],
 "data": [
  ["CN(C)Cc1cncc(-c2ccc3[nH]nc(-c4cc5c(-c6cccc(F)c6)nccc5[nH]4)c3c2)c1", "Not satisfied"],
  ["CS(=O)(=O)c1ccc(NC(=O)c2n[nH]c3ccc(-c4cncc(CN5CCCCC5)c4)cc23)cn1", "Satisfied"],
  ["CN1CCN(c2cncc3[nH]c(-c4n[nH]c5ccc(-c6cncc(N7CCOCC7)c6)cc45)nc23)CC1", "Satisfied"],
  ["Cc1ncc(-c2ccc3[nH]nc(-c4nc5c(-c6cccc(F)c6)cccc5[nH]4)c3n2)n1C", "Not satisfied"],
  ["c1csc(-c2ccnc3[nH]c(-c4n[nH]c5ccc(-c6cncc(OC7CCNCC7)c6)nc45)cc23)c1", "Not satisfied"],
  ["Fc1cccc(-c2ccnc3[nH]c(-c4n[nH]c5ccc(-c6cncc(CN7CCC(F)(F)C7)c6)cc45)nc23)c1", "Not satisfied"],
  ["O=C(Nc1cncc(-c2cnc3[nH]nc(-c4cc5c(N6CCCCC6)nccc5[nH]4)c3c2)c1)C1CC1", "Not satisfied"]
]}

###

Target: UniProt:Q13627
Assay: Inhibition of recombinant DYRK1A (unknown origin) using Ser/Thr 18 peptide as substrate incubated for 1 hr in presence of ATP by FRET assay
pEC50: −log10 of the molar value.

{"columns": ["compound.string", "system.tested", "pEC50"],
 "data": [
  ["O=C(Nc1cncc(-c2ccc3[nH]nc(-c4nc5c(-c6ccncc6)ccnc5[nH]4)c3n2)c1)C1CCCCC1", "UniProt:Q13627", 7.59],
  ["c1ccc2[nH]c(-c3n[nH]c4ncc(-c5cncc(CN6CCCC6)c5)cc34)cc2c1", "UniProt:Q13627", 7.25],
  ["CN(C)Cc1cncc(-c2ccc3[nH]nc(-c4cc5c(-c6ccccc6F)cncc5[nH]4)c3n2)c1", "UniProt:Q13627", 7.16],
  ["O=C(Nc1cncc(-c2ccc3[nH]nc(-c4cc5c(-c6ccccc6F)nccc5[nH]4)c3c2)c1)C1CCCC1", "UniProt:Q13627", 7.09],
  ["Nc1cncc(-c2cnc3[nH]nc(-c4cc5c(-c6ccncc6)ccnc5[nH]4)c3c2)c1", "UniProt:Q13627", 7.72],
  ["CCCC(=O)Nc1cncc(-c2cc3c(-c4nc5c(-c6cccc(F)c6)nccc5[nH]4)n[nH]c3cn2)c1", "UniProt:Q13627", 7.28],
  ["CCC(=O)Nc1cncc(-c2cc3c(-c4cc5c(-c6cccc(F)c6)nccc5[nH]4)n[nH]c3cn2)c1", "UniProt:Q13627", 7.35],
  ["CN(C)Cc1cncc(-c2ccc3[nH]nc(-c4cc5c(-c6ccncc6)cncc5[nH]4)c3c2)c1", "UniProt:Q13627", 7.57],
  ["CN(C)c1cncc(-c2ccc3[nH]nc(-c4nc5c(-c6cccc(F)c6)cncc5[nH]4)c3n2)c1", "UniProt:Q13627", 7.60],
  ["Fc1cccc(-c2cccc3[nH]c(-c4n[nH]cc4/C=C/c4cncc(CN5CCCC5)c4)nc23)c1", "UniProt:Q13627", 7.70],
  ["COc1ccc(NC(=O)c2n[nH]cc2/C=C/c2cncc(CN3CCCCC3)c2)cn1", "UniProt:Q13627", 8.30],
  ["CC(C)CC(=O)Nc1cncc(-c2cc3c(-c4cc5cccnc5[nH]4)n[nH]c3cn2)c1", "UniProt:Q13627", 7.89],
  ["O=C(Nc1cccnc1)c1n[nH]c2cnc(-c3cncc(CN4CCCCC4)c3)cc12", "UniProt:Q13627", 8.40],
  ["O=C(Nc1cncc(-c2ccc3[nH]nc(-c4nc5c(-c6ccccc6F)cccc5[nH]4)c3n2)c1)C(F)(F)F", "UniProt:Q13627", 7.52],
  ["c1cncc(-c2ccc3[nH]nc(-c4nc5c(-c6cccnc6)ccnc5[nH]4)c3n2)c1", "UniProt:Q13627", 7.55],
  ["O=C(Nc1cncc(-c2cnc3[nH]nc(-c4nc5c(-c6cccnc6)cncc5[nH]4)c3c2)c1)C1CCC1", "UniProt:Q13627", 7.96],
  ["CCCC(=O)Nc1cncc(-c2ccc3[nH]nc(-c4nc5c(N6CCCCC6)cncc5[nH]4)c3c2)c1", "UniProt:Q13627", 7.85],
  ["CC(C)C(=O)Nc1cncc(-c2ccc3[nH]nc(-c4nc5c(-c6cccnc6)ccnc5[nH]4)c3n2)c1", "UniProt:Q13627", 7.52],
  ["CC(C)C(=O)Nc1cncc(-c2ccc3[nH]nc(-c4cc5c(-c6cccnc6)cncc5[nH]4)c3c2)c1", "UniProt:Q13627", 8.22],
  ["O=C(Nc1cc2cc(-c3cnn4c3CCNC4)ccc2cn1)c1ccc(OC(F)F)cc1", "UniProt:Q13627", 8.22],
  ["Nc1cncc(-c2cc3c(-c4cc5c(-c6ccccc6F)cncc5[nH]4)n[nH]c3cn2)c1", "UniProt:Q13627", 7.40],
  ["CC(C)Nc1cncc(-c2cnc3[nH]nc(-c4cc5c(-c6cccnc6)ccnc5[nH]4)c3c2)c1", "UniProt:Q13627", 7.74],
  ["CC(C)Nc1cncc(-c2ccc3[nH]nc(-c4nc5c(-c6ccccc6F)cncc5[nH]4)c3c2)c1", "UniProt:Q13627", 7.44],
  ["Cn1cc(-c2ccc3[nH]nc(-c4cc5c(-c6cccnc6)cncc5[nH]4)c3c2)cn1", "UniProt:Q13627", 7.28],
  ["O=C(Nc1ccnc(C(F)(F)F)c1)c1n[nH]c2ccc(-c3cncc(CN4CCCCC4)c3)cc12", "UniProt:Q13627", 8.40],
  ["CCNCc1cncc(-c2ccc3[nH]nc(-c4nc5c(-c6cc(F)cc(NCCN(C)C)c6)nccc5[nH]4)c3n2)c1", "UniProt:Q13627", 7.92],
  ["CN(C)Cc1cncc(-c2cc3c(-c4cc5c(-c6ccncc6)ccnc5[nH]4)n[nH]c3cn2)c1", "UniProt:Q13627", 7.15],
  ["CCNCc1cncc(-c2cnc3[nH]nc(-c4cc5c(-c6ccccc6F)cncc5[nH]4)c3c2)c1", "UniProt:Q13627", 7.85],
  ["O=C(Nc1cncc(-c2ccc3[nH]nc(-c4cc5ccncc5[nH]4)c3n2)c1)C1CCCC1", "UniProt:Q13627", 7.92],
  ["Nc1cncc(-c2cc3c(-c4cc5c(N6CCCCC6)cncc5[nH]4)n[nH]c3cn2)c1", "UniProt:Q13627", 8.22],
  ["CN1CCN(c2nccc3[nH]c(-c4n[nH]c5ccc(-c6cncc(NC(=O)C7CCCCC7)c6)cc45)cc23)CC1", "UniProt:Q13627", 7.66],
  ["CN1CCN(c2ccnc3[nH]c(-c4n[nH]c5ncc(-c6cn[nH]c6)cc45)cc23)CC1", "UniProt:Q13627", 7.46],
  ["Cc1ccc(-c2nccc3[nH]c(-c4n[nH]c5cnc(-c6cncc(N)c6)cc45)nc23)s1", "UniProt:Q13627", 8.40],
  ["CN1CCN(c2cncc3[nH]c(-c4n[nH]c5ccc(-c6cncc(N)c6)cc45)cc23)CC1", "UniProt:Q13627", 8.52],
  ["Cc1ccncc1-c1cc2c(-c3nc4c(-c5cc(F)cc(CNS(C)(=O)=O)c5)cncc4[nH]3)n[nH]c2cn1", "UniProt:Q13627", 8.22]
]}
